Source: ChEMBL document CHEMBL3507680

TEST DETAILS: Human HepG2 cell viability assay in 384 well format
Assay type: toxicity, cell-based
Set-up: dose 125 nL, time 70.5 hour; concentration not given beside the values
EXPERIMENTAL SETUP: HepG2 cells, read-out: Inhibition
# cytotoxicity at 70.5 h annotations

Record excerpt, results attached:
# COMPOUND, ENDPOINT, REPORTED MEASUREMENT
records = [
    ("Cc1noc(C)c1CN1C[C@H](OCC2CC2)[C@H]2COC[C@H]21", "cytotoxicity at 70.5 h", "-7.4%"),
    ("COCC(=O)N1CCCC(c2csc(NC(C)=O)n2)C1 (centres undefined)", "cytotoxicity at 70.5 h", "-8.74%"),
    ("CN(C)CCN(C)c1ccc(-c2nc(COc3ccccc3)no2)cn1", "cytotoxicity at 70.5 h", "6.86%"),
    ("OCCN(Cc1cccnc1)c1ccc(Cl)cn1", "cytotoxicity at 70.5 h", "-2.8%"),
    ("CN(CC(=O)NC(Cc1ccsc1)c1cccnc1)Cc1ccccn1 (centres undefined)", "cytotoxicity at 70.5 h", "31.3%"),
]

QUERY: GET /values?readout=cytotoxicity at 70.5 h&item= COc1cc2c(cc1CNC(Cc1cccs1)c1nccs1)OCO2 (centres undefined)
RESULT: 18.9%

QUERY: GET /values?readout=cytotoxicity at 70.5 h&item= `COC(=O)c1ccoc1CN(C)Cc1cc(OC)c(OC)cc1C`
RESULT: -12.1%

QUERY: GET /values?readout=cytotoxicity at 70.5 h&item= `CC(C)n1ccnc1CN1CCCN(C(=O)c2cnn(C)c2)CC1`
RESULT: -0.464%

QUERY: GET /values?readout=cytotoxicity at 70.5 h&item= `O=C(C1=CCCC1)N1C[C@@H]2COC[C@]2(COCc2ccncc2)C1`
RESULT: -3.75%

QUERY: GET /values?readout=cytotoxicity at 70.5 h&item= `Cn1cc(CN2C[C@@H]3COC[C@]3(CNC(=O)c3ccccc3)C2)cn1`
RESULT: -13.5%

QUERY: GET /values?readout=cytotoxicity at 70.5 h&item= `CCC(=O)N1CCC2(CCN(Cc3cccc(F)c3)CC2)CC1`
RESULT: -1.29%

QUERY: GET /values?readout=cytotoxicity at 70.5 h&item= COc1cccc(CN2CCCC2c2cncc(Nc3nncs3)n2)c1 (centres undefined)
RESULT: 12.9%

QUERY: GET /values?readout=cytotoxicity at 70.5 h&item= `COc1cccc(S(=O)(=O)NC(=O)COC2CCCC2)c1`
RESULT: -3.13%

QUERY: GET /values?readout=cytotoxicity at 70.5 h&item= `Cc1ccc(C)c(OC2CCN(C(=O)CNc3ccccc3Cl)CC2)c1`
RESULT: 24.6%

QUERY: GET /values?readout=cytotoxicity at 70.5 h&item= CC(=O)C(Cc1ccccc1)NC(=O)CSc1nccn1C1CC1 (centres undefined)
RESULT: -0.98%

QUERY: GET /values?readout=cytotoxicity at 70.5 h&item= CC(C)c1nn(C)c(N(C)C)c1CNCC(O)c1cccc(F)c1 (centres undefined)
RESULT: -10%

QUERY: GET /values?readout=cytotoxicity at 70.5 h&item= CC(C)c1cc(C(=O)N2CCOCC2CC(=O)c2ccco2)nn1C (centres undefined)
RESULT: -0.209%

QUERY: GET /values?readout=cytotoxicity at 70.5 h&item= `Cc1ccc(S(=O)(=O)N2CCOc3ccccc32)cc1C(=O)O`
RESULT: -1.56%

QUERY: GET /values?readout=cytotoxicity at 70.5 h&item= Cc1nc(C(=O)N2CCCC2c2noc(C)n2)c[nH]1 (centres undefined)
RESULT: -4.04%

QUERY: GET /values?readout=cytotoxicity at 70.5 h&item= `Cc1noc([C@@H]2C[C@@H]3CCN(c4nnc(C)s4)C[C@H]3O2)n1`
RESULT: -11.6%

QUERY: GET /values?readout=cytotoxicity at 70.5 h&item= `Cc1csc2c(N3CCC(Cn4cc(C(C)(C)O)nn4)CC3)ncnc12`
RESULT: -9.53%

QUERY: GET /values?readout=cytotoxicity at 70.5 h&item= COc1ccccc1CC1CCCN(CC(=O)N2CCOCC2)C1 (centres undefined)
RESULT: -6.05%

QUERY: GET /values?readout=cytotoxicity at 70.5 h&item= `CC(C)(C)C(=O)NCCC(=O)NCCc1ccn(-c2ccccc2)n1`
RESULT: -4.33%

QUERY: GET /values?readout=cytotoxicity at 70.5 h&item= `CC1(CCNC(=O)NCc2ccsc2)OCCO1`
RESULT: -6.29%

====

TEST DETAILS: Human HepG2 cell viability assay in 384 well format
Type: toxicity, cell-based
Parameters: dose 125 nL, time 70.5 hour; concentration not given beside the values
EXPERIMENTAL SETUP: HepG2 cells, read-out: Inhibition
ENDPOINT: cytotoxicity at 70.5 h (%)
Quick note: give the figure in %, leave out the unit.

# COMPOUND, ENDPOINT, UNIT LABEL, REPORTED MEASUREMENT
rows = [
    ("O=C(CCCc1ccc(F)cc1)N1C[C@@H](CN2CCOCC2)[C@@H](CO)C1", "cytotoxicity at 70.5 h", "%", -2.56),
    ("Cc1nn(C)c(C)c1CN(C(=O)c1cnc(O)cn1)C(C)C", "cytotoxicity at 70.5 h", "%", -2.89),
    ("Cc1cnn(CCNCc2nnc(-c3ccc(F)cc3)o2)c1", "cytotoxicity at 70.5 h", "%", -10.4),
    ("Cc1ccc(C2CCCN(C(=O)c3cnn(C)c3)C2)nc1 (centres undefined)", "cytotoxicity at 70.5 h", "%", 24.3),
    ("CCNC(=O)[C@@H]1C[C@H](N)CN1C(=O)c1c[nH]c2ccccc12", "cytotoxicity at 70.5 h", "%", -0.954),
]

Here is another compound to look at.
QUERY: GET /values?readout=cytotoxicity at 70.5 h&item= `O=C(C1=CCCC1)N1CCC[C@]2(C[C@@H](OCc3ccncc3)CO2)C1`
RESULT: 0.64

====

TEST DETAILS: Human HepG2 cell viability assay in 384 well format
Assay type: toxicity, cell-based
Set-up: dose 125 nL, time 70.5 hour; concentration not given beside the values
EXPERIMENTAL SETUP: HepG2 cells, read-out: Inhibition
# cytotoxicity at 70.5 h annotations
Quick note: give the figure in %, leave out the unit.

QUERY: GET /values?readout=cytotoxicity at 70.5 h&item= COCC(c1cccc(C(F)(F)F)c1)N(C)C(=O)c1cc(C)n[nH]1 (stereo unspecified)
RESULT: 18.4

====

# cytotoxicity at 70.5 h annotations
TEST DETAILS: Human HepG2 cell viability assay in 384 well format
Assay type: toxicity, cell-based
Parameters: dose 125 nL, time 70.5 hour; concentration not given beside the values
EXPERIMENTAL SETUP: HepG2 cells, read-out: Inhibition
Quick note: give the figure in %, leave out the unit.

QUERY: GET /values?readout=cytotoxicity at 70.5 h&item= `C[C@@H](NCc1cccc(Cl)c1)c1onc(-c2ccc(F)cc2)c1C(=O)O`
RESULT: -2.58

QUERY: GET /values?readout=cytotoxicity at 70.5 h&item= COC(=O)CN(C(=O)C(C)c1c(F)cccc1F)c1cccc(C)n1 (configuration not stated)
RESULT: -4.95

QUERY: GET /values?readout=cytotoxicity at 70.5 h&item= `Cc1cc2nc(SCC(=O)N3CCCC3)n(C(C)C)c(=O)c2[nH]1`
RESULT: 14.9

QUERY: GET /values?readout=cytotoxicity at 70.5 h&item= `COc1ccc(OC)c(-c2csc(-c3cccc(C(=O)O)c3)n2)c1`
RESULT: -16.7

QUERY: GET /values?readout=cytotoxicity at 70.5 h&item= `COCc1nc(Cn2c(C)cc(C(F)(F)F)cc2=O)no1`
RESULT: 23.9

====

TEST DETAILS: Human HepG2 cell viability assay in 384 well format
Format: toxicity, cell-based
Design: dose 125 nL, time 70.5 hour; concentration not given beside the values
EXPERIMENTAL SETUP: HepG2 cells, read-out: Inhibition
# cytotoxicity at 70.5 h annotations
Quick note: give the figure in %, leave out the unit.

QUERY: GET /values?readout=cytotoxicity at 70.5 h&item= CN(C)C(C(=O)N1CC(c2ccccn2)C1)c1ccc2c(c1)OCO2 (stereo not drawn)
RESULT: -3.16

QUERY: GET /values?readout=cytotoxicity at 70.5 h&item= `Cc1nnc(NCCC(=O)NCc2ccccc2)c(C#N)c1C`
RESULT: -9.42

QUERY: GET /values?readout=cytotoxicity at 70.5 h&item= CC(C)C(=O)N1CCC2(CCCN(CCOc3ccccc3)C2)C1 (stereo not drawn)
RESULT: -8.26

QUERY: GET /values?readout=cytotoxicity at 70.5 h&item= `CCNc1cc2c(nn1)CCN(C(=O)c1ccnc(N(C)C)c1)C2`
RESULT: 0.651

QUERY: GET /values?readout=cytotoxicity at 70.5 h&item= CC(C)C(=O)N1CCCN(C(=O)NC2CCc3ccccc3C2)CC1 (stereo not drawn)
RESULT: -4.48

QUERY: GET /values?readout=cytotoxicity at 70.5 h&item= NCCn1cc(C(=O)N2CCCCCC2c2cccc(F)c2)nn1 (stereo not drawn)
RESULT: 13.5

QUERY: GET /values?readout=cytotoxicity at 70.5 h&item= CSc1ccc(C(C(=O)O)N2CCC(CO)CC2)cc1 (stereo not drawn)
RESULT: 25.1

QUERY: GET /values?readout=cytotoxicity at 70.5 h&item= CN1CCCC(Cc2cncc(C(=O)N3CCOCC3)c2)C1 (stereo not drawn)
RESULT: 12.9

QUERY: GET /values?readout=cytotoxicity at 70.5 h&item= `Cc1nc2ccc(C(=O)N(CCC#N)CCC#N)cc2nc1C`
RESULT: 11.6

QUERY: GET /values?readout=cytotoxicity at 70.5 h&item= `O=C1CCCCN1CCCNCc1cnc(C2CCC2)s1`
RESULT: 0.195

QUERY: GET /values?readout=cytotoxicity at 70.5 h&item= COc1ccc2c(ccn2CC(=O)N2CCCC2Cn2cccn2)c1 (stereo not drawn)
RESULT: 3.03

QUERY: GET /values?readout=cytotoxicity at 70.5 h&item= Cc1n[nH]c(C2CN(CC(=O)NCc3sccc3C)CCO2)n1 (stereo not drawn)
RESULT: -93.4
